Experimental Target: PI3Kα H1047R (T47D cells) (Homo sapiens, UniProt P42336, H1047R)
Construct: endogenous in cells; host or cells: T47D cells
Sequence (P42336 whole entry H1047R): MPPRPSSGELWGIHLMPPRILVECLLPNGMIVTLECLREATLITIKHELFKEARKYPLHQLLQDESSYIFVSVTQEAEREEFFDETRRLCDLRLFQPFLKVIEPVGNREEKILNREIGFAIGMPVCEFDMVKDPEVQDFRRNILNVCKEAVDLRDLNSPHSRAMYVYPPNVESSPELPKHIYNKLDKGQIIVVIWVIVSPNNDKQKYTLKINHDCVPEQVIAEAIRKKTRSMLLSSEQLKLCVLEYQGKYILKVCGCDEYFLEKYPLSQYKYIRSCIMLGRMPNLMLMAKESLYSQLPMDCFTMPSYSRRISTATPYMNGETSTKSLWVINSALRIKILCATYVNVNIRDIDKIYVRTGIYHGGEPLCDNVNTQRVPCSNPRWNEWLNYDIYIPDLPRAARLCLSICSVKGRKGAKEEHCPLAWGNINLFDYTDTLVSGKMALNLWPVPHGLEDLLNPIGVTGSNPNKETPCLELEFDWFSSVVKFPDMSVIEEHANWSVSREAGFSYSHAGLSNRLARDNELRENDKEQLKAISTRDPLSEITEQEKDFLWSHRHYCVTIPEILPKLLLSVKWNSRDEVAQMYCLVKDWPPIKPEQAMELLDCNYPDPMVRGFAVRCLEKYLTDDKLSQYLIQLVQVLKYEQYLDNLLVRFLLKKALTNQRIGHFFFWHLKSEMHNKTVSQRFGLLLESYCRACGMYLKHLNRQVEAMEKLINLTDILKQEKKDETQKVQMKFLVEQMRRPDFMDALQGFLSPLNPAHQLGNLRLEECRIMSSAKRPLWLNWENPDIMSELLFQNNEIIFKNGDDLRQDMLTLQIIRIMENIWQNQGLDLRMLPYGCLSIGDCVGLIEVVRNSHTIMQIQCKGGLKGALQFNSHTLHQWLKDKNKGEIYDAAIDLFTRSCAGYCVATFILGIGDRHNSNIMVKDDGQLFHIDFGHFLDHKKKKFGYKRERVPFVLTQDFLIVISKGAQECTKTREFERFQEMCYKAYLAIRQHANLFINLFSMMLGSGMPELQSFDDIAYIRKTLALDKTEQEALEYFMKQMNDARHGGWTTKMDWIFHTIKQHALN
Sequence (P27986 whole entry partner): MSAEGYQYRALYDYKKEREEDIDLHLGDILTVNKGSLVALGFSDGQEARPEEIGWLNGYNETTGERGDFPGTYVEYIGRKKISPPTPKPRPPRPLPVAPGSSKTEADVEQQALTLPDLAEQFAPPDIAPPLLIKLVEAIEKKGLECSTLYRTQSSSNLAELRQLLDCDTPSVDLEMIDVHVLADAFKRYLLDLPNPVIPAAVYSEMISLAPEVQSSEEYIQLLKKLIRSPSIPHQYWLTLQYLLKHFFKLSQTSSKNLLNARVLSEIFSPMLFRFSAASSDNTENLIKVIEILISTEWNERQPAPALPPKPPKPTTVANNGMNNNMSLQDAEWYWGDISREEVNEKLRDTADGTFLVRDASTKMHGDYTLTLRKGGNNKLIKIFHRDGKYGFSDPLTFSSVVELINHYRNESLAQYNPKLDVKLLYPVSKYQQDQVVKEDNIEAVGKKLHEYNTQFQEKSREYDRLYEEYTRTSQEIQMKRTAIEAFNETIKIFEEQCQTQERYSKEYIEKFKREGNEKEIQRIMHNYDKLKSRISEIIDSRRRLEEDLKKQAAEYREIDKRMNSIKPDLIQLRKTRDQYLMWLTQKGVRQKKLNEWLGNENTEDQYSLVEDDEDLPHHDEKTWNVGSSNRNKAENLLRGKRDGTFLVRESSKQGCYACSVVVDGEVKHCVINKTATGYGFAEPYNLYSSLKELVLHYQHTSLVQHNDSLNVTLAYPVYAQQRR
Experiment: PI3Kα cellular assay: pAKT HTRF in T47D cells after EGF stimulation
Type: cell-based
Cond: T47D cells (PI3Kα H1047R), pAKT S473 HTRF, EGF stimulation
pIC50: −log10 of the molar value.
Examples of compounds with documented pIC50 follow.

Example results:
> print(dat)
                                   compound                       experimental.target  measured.attribute   measurement
1  Cc1cc(C(C)Nc2ccccc2-c2ccnnc2)c2nc(-c3ccc4c(C)cn(C)c4c3)c(C)c(=O)n2c1 (stereo not shown) [Compound 1132]  PI3Kα H1047R (T47D cells) (Homo sapiens, UniProt P42336, H1047R)               pIC50        < 5.70
2  Cc1cc([C@H](C)Nc2ccccc2C(=O)O)c2nc(-c3ccc4c(c3)c(C#N)nn4C)c(C)c(=O)n2c1 [Compound 1082]  PI3Kα H1047R (T47D cells) (Homo sapiens, UniProt P42336, H1047R)               pIC50  5.70 to 6.30
3  Cc1cc(C(C)Nc2ccccc2C(N)=O)c2nc(-c3ccc(F)c(C#N)c3)c(C)c(=O)n2c1 (stereo not shown) [Compound 1092]  PI3Kα H1047R (T47D cells) (Homo sapiens, UniProt P42336, H1047R)               pIC50  6.30 to 7.00
4  Cc1cc([C@H](C)Nc2ccccc2-c2ccnnc2)c2nc(-c3ccc4c(C)cn(C)c4c3)c(C)c(=O)n2c1 [Compound 1134]  PI3Kα H1047R (T47D cells) (Homo sapiens, UniProt P42336, H1047R)               pIC50  5.70 to 6.30
5  C#Cc1ccc(-c2nc3c(C(C)Nc4ccccc4C(=O)O)cc(C)cn3c(=O)c2C)cn1 (stereo not shown) [Compound 1191]  PI3Kα H1047R (T47D cells) (Homo sapiens, UniProt P42336, H1047R)               pIC50        > 7.00
6  Cc1cc(C(C)Nc2cccc3c2OCC(=O)N3)c2nc(N3CCOCC3)cc(=O)n2c1 (stereo not shown) [Compound 684]  PI3Kα H1047R (T47D cells) (Homo sapiens, UniProt P42336, H1047R)               pIC50        < 5.70

Read the next record carefully.
Request the reported pIC50 associated with Cc1cc(C(C)Nc2cccc3oc(=O)[nH]c23)c2nc(N3CCOCC3)cc(=O)n2c1 (stereo not shown) [Compound 918] < 5.70

* * *

pIC50: recorded values
Experimental Target: PI3Kα H1047R (T47D cells) (Homo sapiens, UniProt P42336, H1047R)
Construct: endogenous in cells; host or cells: T47D cells
Experiment: PI3Kα cellular assay: pAKT HTRF in T47D cells after EGF stimulation
Type: cell-based
Cond: T47D cells (PI3Kα H1047R), pAKT S473 HTRF, EGF stimulation
Procedure: SKBR3 or T47D cells are seeded in DMEM containing 10% FBS at 25k cells/well into 96-well cell culture format. […] 384 well plate is left overnight at room temperature before reading HTRF on an Envision plate reader. ND denotes value not determined with that assay for the specified compound; • for T47D (H1047R) selectivity over SKBR3 (WT): A denotes >20-fold; B denotes 20-fold≥value>5-fold; C denotes ≤5-fold. […] ND denotes value not determined with that assay for the specified compound.
pIC50: −log10 of the molar value.

Worked examples follow.
> print(dat)
                                   molecule   measurement
1  Cc1cc([C@@H](C)Nc2ccccc2C(=O)O)c2nc(-c3ccc4c(c3)c(N)nn4C)c(C)c(=O)n2c1 [Compound 785]        > 7.00
2  Cc1cc([C@@H](C)Nc2ccccc2C(=O)O)c2nc(-n3cnc4ccc(O)cc43)cc(=O)n2c1 [Compound 826]  5.70 to 6.30
3  Cc1cc([C@H](C)Oc2ccccc2C(=O)O)c2nc(-c3cccc(F)c3)c(C)c(=O)n2c1 [Compound 1373]        < 5.70

What measured pIC50 goes with Cc1cc([C@@H](C)NC2=C(C(=O)O)C=CCC2)c2nc(-c3ccc(CC4CCN(C(=O)C5CC5)CC4)nc3)cc(=O)n2c1 [Compound 783] ? < 5.70

Recorded pIC50 of Cc1cc([C@@H](C)Nc2ccccc2S(N)(=O)=O)c2nc(N3Cc4cccnc4C3)c(C)c(=O)n2c1 [Compound 1323] , please. > 7.00

Please look up its pIC50: Cc1cc([C@H](C)Nc2ccccc2C(=O)O)c2nc(-c3ccc4c(c3)c(C)nn4C)cc(=O)n2c1 (single isomer, unassigned) [Compound 740] > 7.00
